Would you kindly list ELISA_avg for each of these binders?
- SYSTEM NAME: T1, recombinant human CD123-Fc (human, UniProt P26951 19-305)
- T1 construct: not shown: Fc part of CD123-Fc
- T1 sequence: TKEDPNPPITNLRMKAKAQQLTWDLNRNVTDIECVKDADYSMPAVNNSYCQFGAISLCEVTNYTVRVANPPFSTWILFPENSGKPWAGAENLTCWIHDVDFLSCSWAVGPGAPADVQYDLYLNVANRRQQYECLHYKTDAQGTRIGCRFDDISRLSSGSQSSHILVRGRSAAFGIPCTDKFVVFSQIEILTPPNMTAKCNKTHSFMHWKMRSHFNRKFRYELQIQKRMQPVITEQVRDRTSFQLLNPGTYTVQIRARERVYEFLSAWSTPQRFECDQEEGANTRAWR
- RUN DESCRIPTION: phage ELISA, captured CD123-Fc
Only the number, expressed in ratio A450 target/IgG1-Fc, is required.

Can you share its ELISA_avg? I mean this binder: SEQ ID NO: 401 (designed binder, D domain, on phage) MGSWQEFTMRLDAIYNRLETLGGSEAELAAFEKEIAAFESELQAYKGKGNPEVEWLRQSAANIRSELQAYRHN
13.7

Next: SEQ ID NO: 517 (designed binder, D domain, on phage) MGSWTYFKNDLAGIKEDLEALGGSEAELAQFEFEIAEFEWLLQDYKGKGNPEVEALRKEAAAIRDELQAYRHN
3.6

Next: SEQ ID NO: 453 (designed binder, D domain, on phage) MGSWSFFKEELANIQVYLEALGGSEAELAWFEEDIADFEEDLQHYKGKGNPEVEALRKEAAAIRDELQAYRHN
3.8
